Assay: MRP1 drug-resistance reversers in H69AR cells – cell-based, doxorubicin co-treatment, pilot screen (AID 601)
Settings: H69AR cells + 2 uM doxorubicin, CellTiter-Glo, 72 h; measured here: viability with 2 uM doxorubicin; at 10 µM; stronger effect = lower value
For each record, check the reported viability: if it is below 90% write Met, else write Not met.

INSERT INTO assay_data (molecule, answer_label) VALUES
  ('COc1cccc(-c2nc3n(n2)C(c2ccccc2Cl)C(C(N)=O)=C(C)N3)c1 (centres undefined)', 'Met'),
  ('COc1cccc(C2C(C(N)=O)=C(C)Nc3nc(CCCO)nn32)c1OC (centres undefined)', 'Not met'),
  ('COc1ccc(-c2nnc(SCC(=O)NC(C)c3ccccc3)o2)cc1 (centres undefined)', 'Not met'),
  ('Cc1ccc(C)c(NC(=O)CSc2nnc(-c3ccccc3)o2)c1', 'Met'),
  ('CCCC(=O)N1CC(=O)Nc2ccc(C)cc2C1c1ccc(F)cc1 (centres undefined)', 'Met'),
  ('Cc1cc(NC(=O)CSc2nc3c(c(=O)n2Cc2ccccc2)SC(C)C3)no1 (centres undefined)', 'Met'),
  ('Cc1ccc(-c2cc(C(F)F)nc(NCc3cccnc3)n2)cc1', 'Met'),
  ('Cc1noc(C)c1S(=O)(=O)N1CCN(Cc2ccc3c(c2)OCO3)CC1', 'Met'),
  ('COc1cccc(C2=NOC(C(=O)N3CCN(c4ccccc4)CC3)C2)c1OC (centres undefined)', 'Not met'),
  ('Cc1ccc(-n2ncc3c(=O)[nH]c(SC(C)C)nc32)cc1', 'Met'),
  ('c1ccc(CN2CCN(CCCNc3ccc4nnc(-c5ccccc5)n4n3)CC2)cc1', 'Met'),
  ('CCC(C)NC(=O)CS(=O)(=O)Cc1nc(-c2cccc(OC)c2)oc1C (centres undefined)', 'Not met'),
  ('CSc1nc2c(c(=O)n1C)SC(C)C2 (centres undefined)', 'Not met'),
  ('CCN(CC)C(=O)Cn1ncc2c1-c1ccccc1OC2', 'Met'),
  ('CCCCn1c2c(c3ccccc31)CCc1nonc1-2', 'Not met'),
  ('CCOC(=O)CSc1nnc(Cn2c(=O)sc3ccccc32)n1C', 'Met'),
  ('O=C(Cn1ncc2c(=O)oc3ccccc3c21)NCCCN1CCCC1=O', 'Met'),
  ('O=C(NCCc1cccc(Cl)c1)c1cccnc1', 'Met'),
  ('CC(=O)Nc1nc(-c2ccccc2)nc(C)c1C(C)=O', 'Met');

Sourced from PubChem BioAssay
